Data credit: paper PMC12439760

# key: entry, value: pEC50
- target_system: hCB2 receptor (Homo sapiens, UniProt P34972)
- Sequence (P34972 whole entry): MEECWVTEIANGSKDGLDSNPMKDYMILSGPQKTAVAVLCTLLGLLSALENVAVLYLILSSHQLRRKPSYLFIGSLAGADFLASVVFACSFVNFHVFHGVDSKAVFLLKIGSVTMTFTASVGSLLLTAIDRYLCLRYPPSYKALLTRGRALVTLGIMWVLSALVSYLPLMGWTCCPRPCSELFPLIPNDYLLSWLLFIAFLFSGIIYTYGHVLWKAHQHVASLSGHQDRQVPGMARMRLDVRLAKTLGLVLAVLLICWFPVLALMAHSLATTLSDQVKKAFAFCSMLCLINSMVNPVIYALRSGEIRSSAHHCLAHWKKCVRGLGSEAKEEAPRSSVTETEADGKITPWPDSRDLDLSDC
- run_description: hCB2 Gαq16-coupled calcium mobilization assay in CHO-K1 cells
- run_conditions: hCB2 Ca EC50, CHO cells expressing hCB2 and Gαq16, calcium mobilization
pEC50: −log10 of the molar value.

molecule	pEC50
CC(C)(NC(=O)c1nn(Cc2ccc(F)cc2)c2ccccc12)C1CCCN(C(N)=O)C1 (centres unmarked)	7.54
NC(=O)C1(NC(=O)c2nn(Cc3ccc(F)cc3)c3ccccc23)CCCC1	7.20
NC(=O)N1CCC[C@@H](NC(=O)c2nn(Cc3ccc(F)cc3)c3ccccc23)C1	6.68
CC(C)(NC(=O)c1nn(Cc2ccc(F)cc2F)c2ccccc12)c1cccc(C(N)=O)c1	7.46
CC(C)(NC(=O)c1nn(Cc2ccc(F)cc2)c2ccccc12)C1CCCN(CC(N)=O)C1 (centres unmarked)	7.55
CC(C)(NC(=O)c1nn(CCCCC(F)(F)F)c2ccccc12)c1cccc(C(N)=O)c1	6.47
CC(C)(NC(=O)c1nn(CCC2CCCC2)c2ccccc12)c1cccc(C(N)=O)c1	6.72
O=C(NCC1CCCCC1)c1nn(Cc2ccc(F)cc2)c2ccccc12	7.55
